// reported fold selective binding, target pHLA vs minipool of negative control pHLAs for each item listed
# tgt: HLA-A*02:01_… (HLA-PEPTIDE target G8), soluble (human, enzymatically biotinylated (BirA) for screening and BLI)
# protocol.summary: scFv PPE ELISA
measured.property: fold selective binding, target pHLA vs minipool of negative control pHLAs

[[record]]
binder = "scFv R3G8-P5C03 (scFv, V domains shown, scFv) VH: QVQLVQSGAEVKKPGASVKVSCKASGYTFTSYYMHWVRQAPGQGLEWMGWMNPNSGNTGYAQKFQGRVTMTRDTSTSTVYMELSSLRSEDTAVYYCARGLLGFGEFLTYGMDVWGQGTLVTVSS VL: DIQMTQSPSSLSASVGDRVTITCRASQGISNWLAWYQQKPGKAPKLLIYAASTLQSGVPSRFSGSGSGTDFTLTISSLQPEDFATYYCQQTYSTPWTFGQGTKLEIK"
result = "≥ 3 fold"

[[record]]
binder = "scFv G8-P2E06 (scFv, V domains shown, scFv) VH: QVQLVQSGAEVKKPGASVKVSCKASGYTLTTYYMHWVRQAPGQGLEWMGWINPNSGGTNYAQKFQGRVTMTRDTSTSTVYMELSSLRSEDTAVYYCARAVYYDFWSGPFDYWGQGTLVTVSS VL: DIQMTQSPSSLSASVGDRVTITCRASQGISNSLAWYQQKPGKAPKLLIYAASSLQSGVPSRFSGSGSGTDFTLTISSLQPEDFATYYCQQANSFPWTFGQGTKLEIK"
result = "≥ 3 fold"

[[record]]
binder = "scFv G8-P1D02 (scFv, V domains shown, scFv) VH: EVQLLESGGGLVQPGGSLRLSCAASGFTFSSYWMSWVRQAPGKGLEWVSSISGRGDNTYYADSVKGRFTISRDNSKNTLYLQMNSLRAEDTAVYYCARASGSGYYYYYGMDVWGQGTTVTVSS VL: DIQMTQSPSSLSASVGDRVTITCQASQDISNYLNWYQQKPGKAPKLLIYAASSLQSGVPSRFSGSGSGTDFTLTISSLQPEDFATYYCQQSYSAPYTFGGGTKVEIK"
result = "≥ 3 fold"

